Reference source: paper PMC10573977

- experiment summary: in vivo
- condition info: male, Sprague Dawley, rat, serum, iv, 10 mg/kg
Residues, ends and D or L forms follow the SMILES beside them. *: point of attachment. X1 = OC[C@H]1O[C@@H](O[C@H]2[C@H](O)[C@@H](O)[C@H](*)O[C@@H]2CO)[C@H](O)[C@@H](O)[C@H]1O

molecule	Tmax, min
CC[C@H](C)[C@H](NC(=O)[C@H](Cc1ccc(O)cc1)NC(=O)[C@@H](NC(=O)[C@H](CCCNC(=N)N)NC(=O)[C@@H](N)CC(=O)O)C(C)C)C(=O)N[C@@H](Cc1c[nH]cn1)C(=O)N[C@@H](CO[C@@H]1O[C@H](CO)[C@@H](O[C@@H]2O[C@H](CO)[C@H](O)[C@H](O)[C@H]2O)[C@H](O)[C@H]1O)C(N)=O [PNA6] (H-DRVYIHS(X1)-NH2)	1
